# Test system: LOX IMVI
# assay_explanation: Cytotoxicity against human LOX IMVI cells
# Format: functional
This section presents molecules with their documented GI50 values.
Answer in µM, number only, no unit symbol.

compound_structure=COc1ccccc1C#Cc1ccccc1C#CCCCCO unit_text=µM recorded_measurement=17.9

INPUT: Return GI50 measured with LOX IMVI given this molecule: OCCCCC#Cc1ccccc1C#Cc1cccc(C(F)(F)F)c1
OUTPUT: 17.5

INPUT: Follow-up entry: OCCCCC#Cc1ccccc1C#Cc1ccc(O)cc1
OUTPUT: 13.6

INPUT: Follow-up entry: OCCCCC#Cc1ccccc1C#Cc1cccc(O)c1
OUTPUT: 16.7

---

# Test system: OVCAR-3
# assay_explanation: Cytotoxicity against human OVCAR-3 cells
# Type: functional
This section presents compounds with their documented log10 of GI50 values.
A value of 2 here means GI50 of 100 in µM, since values are log10.

Solved cases below.
compound_structure=OCCCCC#Cc1ccccc1C#Cc1ccccc1C(F)(F)F measure_name="log10 of GI50" recorded_measurement=0.36
compound_structure=OCCCCC#Cc1ccccc1C#Cc1ccc(C(F)(F)F)cc1 measure_name="log10 of GI50" recorded_measurement=1.25
compound_structure=CSc1ccccc1C#Cc1ccccc1C#CCCCCO measure_name="log10 of GI50" recorded_measurement=1.17
compound_structure=OCCCCC#Cc1ccccc1C#Cc1cccc(O)c1 measure_name="log10 of GI50" recorded_measurement=1.30
compound_structure=COc1ccccc1C#Cc1ccccc1C#CCCCCO measure_name="log10 of GI50" recorded_measurement=1.30
compound_structure=OCCCCC#Cc1ccccc1C#Cc1cccs1 measure_name="log10 of GI50" recorded_measurement=1.18

Now let's try a different one.
INPUT: Bench note: what log10 of GI50 did N#Cc1ccc(C#Cc2ccccc2C#CCCCCO)cc1 show?
OUTPUT: 1.30

---

# System: K562
# assay_explanation: Cell cycle arrest in human K562 cells by accumulation at G2/M phase cell at 50 uM after 24 hrs relative to control
# Format: functional
Label satisfied when Activity is strictly below 30%; otherwise label not satisfied.

Completed entries (count: 6):
compound_structure=OCCCCC#Cc1ccccc1C#Cc1ccccn1 answer_label=satisfied
compound_structure=OCCCCC#Cc1ccccc1C#Cc1ccc(O)cc1 answer_label="not satisfied"
compound_structure=OCCCCC#Cc1ccccc1C#Cc1ccc(C(F)(F)F)cc1 answer_label=satisfied
compound_structure=OCCCCC#Cc1ccccc1C#Cc1ccccc1C(F)(F)F answer_label="not satisfied"
compound_structure=N#Cc1ccc(C#Cc2ccccc2C#CCCCCO)cc1 answer_label=satisfied
compound_structure=COc1cccc(C#Cc2ccccc2C#CCCCCO)c1 answer_label="not satisfied"

INPUT: Strictly below 30%: is that where Activity of CSc1ccccc1C#Cc1ccccc1C#CCCCCO sits?
OUTPUT: not satisfied

INPUT: Follow-up entry: COc1ccccc1C#Cc1ccccc1C#CCCCCO
OUTPUT: satisfied

INPUT: Follow-up entry: OCCCCC#Cc1ccccc1C#Cc1cccc(O)c1
OUTPUT: not satisfied

---

# Tested on: K562
# assay_explanation: Cytotoxicity against human K562 cells
# Type: functional
measure_name: GI50 (µM)
Answer in µM, number only, no unit symbol.

Solved cases below.
compound_structure=CSc1ccccc1C#Cc1ccccc1C#CCCCCO measurement_target=K562 recorded_measurement=6.1
compound_structure=N#Cc1ccc(C#Cc2ccccc2C#CCCCCO)cc1 measurement_target=K562 recorded_measurement=21.7
compound_structure=OCCCCC#Cc1ccccc1C#Cc1ccccn1 measurement_target=K562 recorded_measurement=29
compound_structure=OCC#Cc1ccccc1C#Cc1ccccc1 measurement_target=K562 recorded_measurement=26
compound_structure=COc1ccccc1C#Cc1ccccc1C#CCCCCO measurement_target=K562 recorded_measurement=15.5

INPUT: Return GI50 measured with K562 given this compound: OCCCCC#Cc1ccccc1C#Cc1ccc(O)cc1
OUTPUT: 20.4

INPUT: Follow-up entry: OCCC#Cc1ccccc1C#Cc1ccccc1
OUTPUT: 11

INPUT: Follow-up entry: COc1cccc(C#Cc2ccccc2C#CCCCCO)c1
OUTPUT: 1.8

INPUT: Follow-up entry: OCCCCC#Cc1ccccc1C#Cc1ccc(C(F)(F)F)cc1
OUTPUT: 18.2

INPUT: Follow-up entry: OCCCCC#Cc1ccccc1C#Cc1ccccc1C(F)(F)F
OUTPUT: 1.1

INPUT: Follow-up entry: OCCCCC#Cc1ccccc1C#Cc1ccccc1
OUTPUT: 21.1
